The reported measurements were obtained from patent US5679770A.

- measured.on: human FXa (Homo sapiens, UniProt P00742)
- Construct: purchased American Diagnostica Inc
- Sequence (P00742 235-488 limits assumed): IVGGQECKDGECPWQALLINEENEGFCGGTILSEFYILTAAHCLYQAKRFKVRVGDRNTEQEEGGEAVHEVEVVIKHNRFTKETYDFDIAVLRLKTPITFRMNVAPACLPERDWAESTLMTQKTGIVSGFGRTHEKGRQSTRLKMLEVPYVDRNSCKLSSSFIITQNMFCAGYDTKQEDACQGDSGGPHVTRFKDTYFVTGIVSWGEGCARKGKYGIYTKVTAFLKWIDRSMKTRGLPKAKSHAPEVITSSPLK
- Sequence (P00742 41-179 partner limits assumed): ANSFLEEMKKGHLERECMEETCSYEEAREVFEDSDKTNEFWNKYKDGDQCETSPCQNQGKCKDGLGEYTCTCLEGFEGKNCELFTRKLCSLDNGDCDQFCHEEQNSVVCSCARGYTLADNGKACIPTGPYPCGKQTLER
- test.details: FXa-inhibiting activity (synthetic substrate S-2222)
- Assay type: biochemical
- study.conditions: relative to control AN68; concentration expressed as bovine trypsin-inhibiting activity
recorded.metric: FXa-inhibiting activity, times higher than that of polypeptide AN68

{"substance": "Q19K/Y46E: formula 1 sequence with Lys for position 15 Gln and Glu for position 42 Tyr; SEQ. I.D. NO. 8; plasmid pM736 (AACNLPIVRGPCRAFIKLWAFDAVKGKCVLFPYGGCQGNGNKFESEK)", "result": "about ten"}
{"substance": "Q19R/Y46E: formula 1 sequence with Arg for position 15 Gln and Glu for position 42 Tyr; SEQ. I.D. NO. 16; plasmid pM737B (AACNLPIVRGPCRAFIRLWAFDAVKGKCVLFPYGGCQGNGNKFESEK)", "result": "about ten"}
